assay_text: Plasma pharmacokinetics of lenvatinib
conditions: human, in vivo, AUC(0-t), Geometric mean (%CV), DL1 lenvatinib 20 mg + TMZ 100 mg/m2, Cycle 2/Day 1, n = 4
metric_name: AUC(0-t) (ng·h/mL)

INSERT INTO assay_data (compound, result_units, reading) VALUES
  ('COc1cc2nccc(Oc3ccc(NC(=O)NC4CC4)c(Cl)c3)c2cc1C(N)=O [Lenvatinib]', 'ng·h/mL', 4120);

---

assay_text: Plasma pharmacokinetics of lenvatinib
conditions: human, in vivo, AUC(0-t), Mean (SD), DL3 lenvatinib 24 mg + TMZ 150 mg/m2, Cycle 2/Day 1, n = 18
metric_name: AUC(0-t)

INSERT INTO assay_data (line_notation, reading) VALUES
  ('COc1cc2nccc(Oc3ccc(NC(=O)NC4CC4)c(Cl)c3)c2cc1C(N)=O', '4740 ng·h/mL');

---

assay_text: Plasma pharmacokinetics of lenvatinib
conditions: human, in vivo, AUC(0-t), Geometric mean (%CV), DL1 lenvatinib 20 mg + TMZ 100 mg/m2, Cycle 1/Day 1, n = 6
metric_name: AUC(0-t) (ng·h/mL)

INSERT INTO results (line_notation, reading) VALUES
  ('COc1cc2nccc(Oc3ccc(NC(=O)NC4CC4)c(Cl)c3)c2cc1C(N)=O', 3120);
